target entity: enzyme (from seminal vesicles of sheep) (Ovis aries, UniProt P05979)
Sequence (P05979 25-600): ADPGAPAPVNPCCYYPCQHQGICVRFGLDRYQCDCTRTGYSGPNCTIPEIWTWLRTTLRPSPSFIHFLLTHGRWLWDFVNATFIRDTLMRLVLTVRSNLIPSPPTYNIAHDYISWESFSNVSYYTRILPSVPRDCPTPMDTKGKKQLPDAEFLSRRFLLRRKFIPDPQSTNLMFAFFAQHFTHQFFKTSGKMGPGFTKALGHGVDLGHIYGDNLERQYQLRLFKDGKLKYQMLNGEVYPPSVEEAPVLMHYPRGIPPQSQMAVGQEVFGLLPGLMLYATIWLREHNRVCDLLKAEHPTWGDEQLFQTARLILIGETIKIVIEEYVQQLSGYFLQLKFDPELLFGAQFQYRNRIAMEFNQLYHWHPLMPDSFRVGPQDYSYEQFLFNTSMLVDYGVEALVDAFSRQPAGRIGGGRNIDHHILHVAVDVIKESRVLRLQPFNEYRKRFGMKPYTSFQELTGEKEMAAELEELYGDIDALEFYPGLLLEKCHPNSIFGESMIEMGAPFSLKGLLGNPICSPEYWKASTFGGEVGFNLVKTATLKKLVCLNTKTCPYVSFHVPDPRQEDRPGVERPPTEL
test context: Table 1; share of total prostaglandin (=100%)
Measured PGD2 %, listed per entry.
reported endpoint: PGD2 %

molecule | reported endpoint | reported result
NCCc1ccc(O)c(O)c1 | PGD2 % | 13%
N[C@H](CS)C(=O)O | PGD2 % | 23%
NC(Cc1ccc(O)c(O)c1)C(=O)O (stereo not shown) | PGD2 % | 16%
Cc1cccc(O)c1 [Example 2, m-cresol, reference compound] | PGD2 % | 2%
O=C(O)CCc1c[nH]c2ccc(O)cc12 | PGD2 % | 17%
NCC(O)c1ccc(O)c(O)c1 (stereo not shown) | PGD2 % | 17%
COc1cc(C(=O)O)ccc1O | PGD2 % | 17%
O=C(O)CCCCC1CCSS1 (stereo not shown) | PGD2 % | 8%
N[C@@H](CSSC[C@H](N)C(=O)O)C(=O)O [Example 41, Cystine, reference compound] | PGD2 % | 15%
O=C(O)CCc1c[nH]c2ccccc12 | PGD2 % | 16%
NC(Cc1ccc(O)cc1)C(=O)O (stereo not shown) | PGD2 % | 17%
NCCc1ccc(O)cc1 | PGD2 % | 17%
NCCc1c[nH]c2ccc(O)cc12 | PGD2 % | 20%
Oc1ccc(O)cc1 | PGD2 % | 19%
CNCC(O)c1ccc(O)c(O)c1 (stereo not shown) | PGD2 % | 18%
NC(Cc1c[nH]c2ccccc12)C(=O)O (stereo not shown) | PGD2 % | 21%
